System: MS2 coat protein
Assay: apparent KD of MS2 coat protein; designed switch direction (-1 OFF switch, 1 ON switch): -1; higher = weaker reporter binding
Conditions: input ligand: FMN 200 uM
Short version: apparent KD of MS2 coat protein at least 50 nM is 1.0, less is 0.0.

Ordered Residues	Assigned Label
UGUGUGUGAGGAUAUACAAUGCGCGCGCGAAAGUGUGUGUUACAUGAGGAUCACCCAUGUAGAAGGCGCGCGCG [-31, -27.8 kcal A 24%, 6,6bis] (Eterna round: R97, puzzle: Exclusion 2)	0.0
AGAUAGUGCUGAGGAUAUCAGAAUAGAAAGAAAUGAGAAGGCGGACAUGAGGAUCACCCAUGUGAGGUCUUGAGACUACAUGGU [Prohibition 38 - Jieux - Exclusion NG 1] (Eterna round: R96, puzzle: Exclusion NG 1)	1.0
CGCCGAGUGUUAGGAUAUUACAAGCAUAAGCGGUAAGAAGGAACAUGAGGAUCACCCAUGUACUGUCCCAUCGGGACAGGUUUC [Qule] (Eterna round: R96, puzzle: Exclusion NG 1)	1.0

Okay, now this sequence:
Determine whether this sequence has apparent KD of MS2 coat protein no lower than 50 nM: CCUUGACAUGAGGAUCACCCAUGUGAGGAUAUCCUGCGAGGAUCAAAAGAUCCUCGUGGGAGAAGGCAUAUGAA [Omei Ex1 A7] (Eterna round: R97, puzzle: Exclusion 1)
0.0

Values from the supplement of paper PMC9170038
